target: human nAChRα6-α3 chimera, in addition to β2 and β3^V273S subunits (Homo sapiens, UniProt P32297+Q15825)
Construct: expressed in transfected cells
Sequence (Q05901 25-458 V273S): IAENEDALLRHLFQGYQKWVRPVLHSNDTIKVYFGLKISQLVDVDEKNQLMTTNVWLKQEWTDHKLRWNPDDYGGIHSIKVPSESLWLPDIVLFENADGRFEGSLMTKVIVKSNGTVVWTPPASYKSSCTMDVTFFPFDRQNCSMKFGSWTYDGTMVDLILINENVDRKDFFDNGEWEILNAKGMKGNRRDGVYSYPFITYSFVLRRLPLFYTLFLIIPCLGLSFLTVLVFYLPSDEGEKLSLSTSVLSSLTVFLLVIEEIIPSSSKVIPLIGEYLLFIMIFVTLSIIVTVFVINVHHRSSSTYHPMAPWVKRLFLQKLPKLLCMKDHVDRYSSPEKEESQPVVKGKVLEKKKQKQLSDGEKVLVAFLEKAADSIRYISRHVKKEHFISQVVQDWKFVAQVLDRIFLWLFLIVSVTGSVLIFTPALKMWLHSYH
Sequence (P17787 26-502, stated change not applied, further chain): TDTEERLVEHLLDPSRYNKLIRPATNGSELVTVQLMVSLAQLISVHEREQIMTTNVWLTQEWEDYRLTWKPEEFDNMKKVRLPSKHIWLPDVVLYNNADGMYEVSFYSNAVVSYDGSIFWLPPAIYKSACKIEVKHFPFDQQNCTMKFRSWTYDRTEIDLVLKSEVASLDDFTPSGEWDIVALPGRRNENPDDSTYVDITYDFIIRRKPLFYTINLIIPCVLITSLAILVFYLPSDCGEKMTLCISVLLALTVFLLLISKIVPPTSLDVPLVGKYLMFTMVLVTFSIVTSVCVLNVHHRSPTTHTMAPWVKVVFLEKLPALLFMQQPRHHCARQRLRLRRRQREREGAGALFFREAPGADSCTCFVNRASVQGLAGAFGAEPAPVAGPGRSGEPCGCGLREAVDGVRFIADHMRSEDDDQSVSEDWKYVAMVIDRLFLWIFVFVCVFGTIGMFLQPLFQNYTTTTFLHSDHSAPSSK
Sequence (Q15825+P32297 fused with the stated changes): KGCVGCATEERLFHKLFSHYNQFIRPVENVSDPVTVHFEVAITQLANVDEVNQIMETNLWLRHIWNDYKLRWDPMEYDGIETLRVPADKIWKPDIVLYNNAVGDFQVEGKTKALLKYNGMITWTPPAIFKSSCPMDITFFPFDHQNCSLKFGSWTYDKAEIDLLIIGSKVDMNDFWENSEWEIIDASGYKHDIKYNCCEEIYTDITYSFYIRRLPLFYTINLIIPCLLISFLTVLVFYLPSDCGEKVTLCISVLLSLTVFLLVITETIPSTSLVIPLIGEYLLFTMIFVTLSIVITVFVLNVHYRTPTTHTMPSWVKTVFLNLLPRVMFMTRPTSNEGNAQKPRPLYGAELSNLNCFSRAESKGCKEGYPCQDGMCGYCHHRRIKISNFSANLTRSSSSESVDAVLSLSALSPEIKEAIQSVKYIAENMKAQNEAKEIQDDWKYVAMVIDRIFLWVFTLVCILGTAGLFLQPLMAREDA
experimentDescription: fluorescence-based calcium assay: inhibition of nicotine stimulated nAChRα6 activity (FLIPR)
testSettings: HEK cell line stably expressing the receptor; 10 min pre-incubation, nicotine EC80; 10-point curve, duplicate wells; read-out: IC50
Field 'label' (enum: Criterion met / Criterion not met). Set to Criterion met when IC50 is strictly under 0.2 µM; else Criterion not met.

Cc1nc(NC2CCN3CCCC23)ncc1-c1ccc(OC(F)(F)F)cc1F (single isomer, unassigned) [Example 97c] :: Criterion met

Input line: Please let me know if Cc1nc(NCC[C@H]2CCCN2C)ncc1-c1ccc(C(F)(F)F)cc1F [Example 106a] shows IC50 below 0.2 µM.
Output line: Criterion met

----------
target: human nAChRα6-α3 chimera, in addition to β2 and β3^V273S subunits (Homo sapiens, UniProt P32297+Q15825)
Construct: expressed in transfected cells
experimentDescription: fluorescence-based calcium assay: inhibition of nicotine stimulated nAChRα6 activity (FLIPR)
testSettings: HEK cell line stably expressing the receptor; 10 min pre-incubation, nicotine EC80; 10-point curve, duplicate wells; read-out: IC50
measurementKind: IC50 (nM)
One number for each entry, in nM.

COc1ccc(-c2cnc(NC3CCCC(N(C)C)C3)nc2C#N)c(F)c1 (single isomer, unassigned) [Example 56a] :: 133
Cc1nc(NC2CCN(C(C)C)C2)ncc1-c1ccc(F)cc1F (stereo not shown) :: 50
COc1ccc(-c2cnc(NC3CCOCC3)nc2C)c(F)c1 :: 1310

Continue with the molecule presented below.
Input line: What IC50 value was documented for this molecule, COc1ccc(-c2nnc(NC3CCCN(C)C3)nc2C)c(F)c1 (single isomer, unassigned) [Example 69a] ?
Output line: 436

----------
Task for the reader: assign each of the following compounds its reported IC50.
target: human nAChRα6-α3 chimera, in addition to β2 and β3^V273S subunits (Homo sapiens, UniProt P32297+Q15825)
Construct: expressed in transfected cells
experimentDescription: fluorescence-based calcium assay: inhibition of nicotine stimulated nAChRα6 activity (FLIPR)
testSettings: IC50 (μM), HEK cell line stably expressing the receptor; 10 min pre-incubation, nicotine EC80; 10-point curve, duplicate wells
Description: The ability of the test compounds to inhibit nicotine stimulated nAChRα6 activity was determined in a fluorescence-based calcium assay. Compound activity was determined using a HEK cell line stably expressing a human nAChRα6-α3 chimera, in addition to β2 and β3^V273S subunits (as in Capelli et al, Br J Pharmacol 163(2): 313-29 2011). […]
Answers are plain numbers, in µM.

Worked set:
Cc1nc(N[C@@H]2CCCNC2)ncc1-c1ccc(C(F)(F)F)cc1F [Example 128] :: 0.18
Cc1nc(NC[C@@H]2CCCCN2)ncc1-c1ccc(C(F)(F)F)cc1F [Example 104b] :: 0.045
COc1ccc(-c2cnc(NCC3CCCCN3C)nc2C)c(Cl)c1 (centres unmarked) [Example 35] :: 0.029
Cc1nc(NC[C@H]2CCCCN2)ncc1-c1ccc(C(F)(F)F)cc1F [Example 104a] :: 0.104
Cc1nc(NC[C@]2(C)CCCN2C)ncc1-c1ccc(C(F)(F)F)cc1F [Example 136] :: 0.096

Parameters: items (list). Returns: IC50 for each item.
1. CCN1CCCCC1CNc1ncc(-c2ccc(F)cc2F)c(C)n1 (centres unmarked) [Example 10]
2. Cc1nc(N[C@H]2CCCNC2)ncc1-c1ccc(C(F)(F)F)cc1F [Example 116]
3. Cc1nc(NC[C@@]2(C)CCCN2C)ncc1-c1ccc(C(F)(F)F)cc1F [Example 137]

Output line:
0.201
0.127
0.11
